Numbers sourced from the supplement of paper PMC13380429.

system: Vero E6 infected with SARS-CoV-2; experiment: morphology score (similarity to uninfected cells); higher = more like uninfected cells; settings: 24 h
Counter-ions that a name gives are not always drawn.
Assign satisfied whenever morphology score does not fall below 0.03; assign not satisfied whenever it does.

{"Compound": "NCC(O)c1ccc(O)cc1 (stereo not given) [octopamine] (10 µM)", "Cat": "not satisfied"}
{"Compound": "N#CCC(=O)NN [cyacetacide] (10 µM)", "Cat": "satisfied"}
{"Compound": "Cc1cc(C)c2c(c1)[C@@H](N(Cc1cc(C(F)(F)F)cc(C(F)(F)F)c1)c1nnn(C)n1)CCCN2C[C@H]1CC[C@H](C(=O)O)CC1 [evacetrapib] (10 µM)", "Cat": "satisfied"}
{"Compound": "COc1cn(-c2ccc(-n3cccn3)cc2F)nc(-c2ccnn2-c2ccccc2)c1=O (10 µM)", "Cat": "satisfied"}
{"Compound": "CO[C@]12C[C@@H](COC(=O)c3cncc(Br)c3)CN(C)[C@@H]1Cc1cn(C)c3cccc2c13 [nicergoline] (10 µM)", "Cat": "satisfied"}
{"Compound": "COc1cc2c(NC3CCN(C(C)C)CC3)nc(C3CCCCC3)nc2cc1OCCCN1CCCC1 (10 µM)", "Cat": "satisfied"}
{"Compound": "CC(=O)Nc1ccc(C(=O)Nc2ccccc2N)cc1 [tacedinaline] (0.833333 µM)", "Cat": "not satisfied"}
{"Compound": "NC[C@H](O)c1ccc(O)c(O)c1 [norepinephrine] (10 µM)", "Cat": "not satisfied"}
{"Compound": "CCC1(C)CC(=O)NC1=O (stereo not given) [ethosuximide] (10 µM)", "Cat": "satisfied"}
{"Compound": "COc1cc(SC)ccc1C(=O)N1CCC(Cc2ccccc2)CC1 (10 µM)", "Cat": "not satisfied"}
{"Compound": "CCC(=O)NC[C@@H]1C[C@H]1c1cccc2c1CCO2 [tasimelteon] (10 µM)", "Cat": "satisfied"}
{"Compound": "NC(=O)[C@H]1CCS[C@@H]2C[C@]3(CCCN3C(=O)Cc3ccc(NC(=O)COc4ccc(Cl)cc4Cl)cc3)C(=O)N12 (10 µM)", "Cat": "not satisfied"}
{"Compound": "CC[C@@]1(O)C(=O)OCc2c1cc1n(c2=O)Cc2cc3c(CN(C)C)c(O)ccc3nc2-1 [topotecan] (10 µM)", "Cat": "satisfied"}
{"Compound": "C=CC[N@@+]12CC[C@@]34c5ccccc5N5/C=C6/[C@H]7C[C@H]8[C@@]9(CC[N@@+]8(CC=C)C/C7=C/CO)c7ccccc7N(/C=C(/[C@@H](C[C@@H]31)/C(=C\\CO)C2)[C@H]54)[C@@H]69 [alcuronium] (10 µM)", "Cat": "not satisfied"}
{"Compound": "O=C(Oc1ccc([N+](=O)[O-])cc1)N1CCN(Cc2cccc(Oc3ccccc3)c2)CC1 (10 µM)", "Cat": "satisfied"}
{"Compound": "CNC(=O)c1cnn(-c2nc(N)c3ncn([C@@H]4O[C@H](CO)[C@@H](O)[C@H]4O)c3n2)c1 [regadenoson] (10 µM)", "Cat": "not satisfied"}
{"Compound": "Cc1cc(O)ccc1Cl [chlorocresol] (10 µM)", "Cat": "satisfied"}
{"Compound": "CO[C@@]1(NC(=O)C(C(=O)O)c2ccc(O)cc2)C(=O)N2C(C(=O)O)=C(CSc3nnnn3C)CO[C@@H]21 (stereo not given in full) [moxalactam] (10 µM)", "Cat": "not satisfied"}
{"Compound": "Cc1cn2nc([C@@H]3CCCCN3C(=O)c3cc(Cl)ccc3NS(C)(=O)=O)cc2nc1N1CC[C@H](N)C1 [presatovir] (10 µM)", "Cat": "satisfied"}
{"Compound": "COc1cc(N)c(Cl)cc1C(=O)CCC1CCN(CCNS(C)(=O)=O)CC1 (10 µM)", "Cat": "satisfied"}
{"Compound": "CCCCCn1cc(C(=O)NC23CC4CC(CC(C4)C2)C3)c(=O)c2cc(-c3ccccc3)ccc21 (10 µM)", "Cat": "satisfied"}
{"Compound": "CS(=O)(=O)c1ccc(-c2cnc(N)c(C(=O)Nc3ccccc3)n2)cc1 (10 µM)", "Cat": "satisfied"}
{"Compound": "CN[C@@H]1[C@H](O[C@H]2[C@H](O[C@H]3[C@H](O)[C@@H](O)[C@H](N=C(N)N)[C@@H](O)[C@@H]3N=C(N)N)O[C@@H](C)[C@]2(O)C=O)O[C@@H](CO)[C@H](O)[C@H]1O [STREPTOMYCIN SULFATE [5mM; 10% aq DMSO + 5mM ethanolamine]] (10 µM)", "Cat": "satisfied"}
{"Compound": "CCCN[C@H]1CCc2nc(N)sc2C1 [pramipexole] (10 µM)", "Cat": "satisfied"}
{"Compound": "CCS(=O)(=O)c1ccc2oc(-c3ccc4ccccc4c3)nc2c1 [ezutromid] (10 µM)", "Cat": "satisfied"}

----------
test system: Vero E6 infected with SARS-CoV-2; experiment: inhibition of SARS-CoV-2 cytopathic effect; higher = more antiviral protection, active = above 15; details: 10000 nM; 48 h
Endpoint Name: inhibition of SARS-CoV-2 cytopathic effect (%)

{"Structure As Smiles": "CC(=O)OC[C@H](N)C(=O)O", "Unit Tag": "%", "Measured": -0.72}
{"Structure As Smiles": "CCCCCCCCN=c1ccn(CCCCCCCCCCn2ccc(=NCCCCCCCC)cc2)cc1", "Unit Tag": "%", "Measured": -19.8}
{"Structure As Smiles": "Cc1cc(CCC[C@H](CC(=O)NO)C(=O)N[C@H](C(=O)N[C@H](C)c2ccccc2)C(C)(C)C)ccc1-c1ccccc1", "Unit Tag": "%", "Measured": -13}

----------
system: Vero E6 infected with SARS-CoV-2; experiment: inhibition of SARS-CoV-2 cytopathic effect; higher = more antiviral protection, active = above 15; details: 100 nM; 48 h
Endpoint Name: inhibition of SARS-CoV-2 cytopathic effect (%)

{"Compound": "Cc1ccc2c(c1)C1(CCN(CCc3nc(-c4ccccc4)oc3C)CC1)OC(=O)N2", "Measured": 0.82}
{"Compound": "Cc1ccccc1-c1cc(N2CCN(C)CC2)ncc1N(C)C(=O)C(C)(C)c1cc(C(F)(F)F)cc(C(F)(F)F)c1", "Measured": -1.38}
{"Compound": "Cc1ccccc1N1CCN(S(=O)(=O)C[C@]23CC[C@H](C[C@@H]2NC(=O)[C@@H](N)CCS(C)(=O)=O)C3(C)C)CC1", "Measured": 2.92}
{"Compound": "N=C(N)NS(=O)(=O)c1ccc(N)cc1", "Measured": -0.35}
{"Compound": "NCC1CC(=O)N(Cc2ccccc2)C1 (configuration not stated)", "Measured": 1.38}
{"Compound": "N.N.[Cl][Pt][Cl] [cisplatin]", "Measured": 0.61}
{"Compound": "NS(=O)(=O)c1ccc(C(=O)O)cc1 [carzenide]", "Measured": 0.05}
{"Compound": "COC(=O)C1=C(C)NC(C)=C(C(=O)OCC(C)C)C1c1ccccc1[N+](=O)[O-] (configuration not stated)", "Measured": -2.24}
{"Compound": "CC(C)(C(=O)O)c1ccc(C(O)CCCN2CCC(C(O)(c3ccccc3)c3ccccc3)CC2)cc1 (configuration not stated) [fexofenadine]", "Measured": -0.49}
{"Compound": "CCC[N+]12[C@H](O)[C@@H](CC)[C@@H]3C[C@H]1[C@@H]1N(C)c4ccccc4[C@]14C[C@H]2[C@@H]3[C@H]4O", "Measured": 0.64}
{"Compound": "CC(O)CN1CCN(CC(=O)[O-])CCN(CC(=O)[O-])CCN(CC(=O)[O-])CC1.[Gd+3] (configuration not stated)", "Measured": 0.17}
{"Compound": "OCCN1C[C@H](O)[C@@H](O)[C@H](O)[C@H]1CO", "Measured": 52.1}
{"Compound": "Nc1nc(NCCc2ccc(O)cc2)nc2nc(-c3ccco3)nn12", "Measured": -0.54}
{"Compound": "CCc1ccc(OCc2ccccc2C(=O)Nc2ccc3nc(C)cc(N)c3c2)cc1", "Measured": 2.46}
{"Compound": "Nc1cc(F)ccc1NC(=O)/C=C/c1cnn(C/C=C/c2ccccc2)c1", "Measured": 0.89}
{"Compound": "C=CC(=O)Nc1cccc(Oc2nc(Nc3ccc(N4CCN(C)CC4)cc3)nc3ccsc23)c1", "Measured": 11.6}
{"Compound": "CCCCCCCCCCCC(=O)N(CCO)CCO [lauric-diethanolamide]", "Measured": -1.44}

----------
system: Vero E6 infected with SARS-CoV-2; assay: SARS-CoV-2 infection rate relative to infected DMSO; higher = more infection, active = 60 or less; settings: 24 h
Endpoint Name: SARS-CoV-2 infection rate (%)

{"Compound": "O=C(O)c1ccc2c(c1)C(=O)N(c1cccc(Oc3ccc([N+](=O)[O-])cc3)c1)C2=O (10 µM)", "Unit Tag": "%", "Measured": 99.5}
{"Compound": "C[C@@H](C1=C(CCN(C)C)Cc2ccccc21)c1ccccn1 (racemic) [dimetindene] (10 µM)", "Unit Tag": "%", "Measured": 94.8}
{"Compound": "c1cnc(NCc2ccc(CNc3ncccn3)cc2)nc1 (10 µM)", "Unit Tag": "%", "Measured": 112}
{"Compound": "CC(C)Oc1cccc(-n2c(CCc3c[nH]c4ccc(Br)cc34)nc3ccccc3c2=O)c1 (10 µM)", "Unit Tag": "%", "Measured": 93}
{"Compound": "NC(=S)N/N=C/c1ccncc1 [perchlozone] (10 µM)", "Unit Tag": "%", "Measured": 114}
{"Compound": "O=C(/C=C/c1ccc(O)c(O)c1)OCCc1ccccc1 [caffeic-acid-phenethyl-ester] (10 µM)", "Unit Tag": "%", "Measured": 79}
{"Compound": "O=C(/C=C/c1ccc2ccc(C(F)(F)F)cc2n1)c1ccncc1 (10 µM)", "Unit Tag": "%", "Measured": 63.5}
{"Compound": "CC(=O)Nc1c(I)cc(I)c(C(=O)O)c1I [acetriazoic-acid] (10 µM)", "Unit Tag": "%", "Measured": 112}
{"Compound": "CN(C)C(=O)COC(=O)Cc1ccc(OC(=O)c2ccc(NC(=N)N)cc2)cc1 [camostat-mesilate] (10 µM)", "Unit Tag": "%", "Measured": 114}
{"Compound": "OC[C@@H](O)[C@@H](O)CO [erythritol] (10 µM)", "Unit Tag": "%", "Measured": 87.5}
{"Compound": "O=C(N/N=C/c1ccc([N+](=O)[O-])o1)c1cc([N+](=O)[O-])cc([N+](=O)[O-])c1O [nifursol] (10 µM)", "Unit Tag": "%", "Measured": 111}
{"Compound": "CC1(C)CCC(C)(C)c2c1cc(C(=O)Nc1cc(F)c(C(=O)O)c(F)c1)c(O)c2Cl (10 µM)", "Unit Tag": "%", "Measured": 110}
